- EXPERIMENT: In vitro binding assay: free test drug recovered after 3 h incubation with and without patiromer in SGF, acetate buffer or SIF
- DETAILS: QSPR input data; test matrix SIF
ASSAY_METRIC: SIF
// no unit string in output, number only

**Query** Quick one: SIF for CCCCC(=O)N(Cc1ccc(-c2ccccc2-c2nnn[nH]2)cc1)[C@H](C(=O)O)C(C)C ?
**Result** 98

**Query** Quick one: SIF for CC(=O)S[C@@H]1CC2=CC(=O)CC[C@]2(C)[C@H]2CC[C@@]3(C)[C@@H](CC[C@@]34CCC(=O)O4)[C@H]12 ?
**Result** 96.8

**Query** Quick one: SIF for O=C(NC[C@H]1CN(c2ccc(N3CCOCC3=O)cc2)C(=O)O1)c1ccc(Cl)s1 ?
**Result** 95.1

**Query** Quick one: SIF for CC1=C(C(=O)O)N2C(=O)[C@@H](NC(=O)[C@H](N)c3ccccc3)[C@H]2SC1 ?
**Result** 104.4

----------
Provide the reported pKa of each item.
- EXPERIMENT: pKa determination by titration in aqueous solution (UV or pH monitored)
- DETAILS: aqueous solution, pKa (B = base), basic group; average of three determinations
Structures can show the parent of a compound that is named as a salt.
// no unit string in output, number only

**Query** Quick one: pKa for NCCCC[C@H](N[C@@H](CCc1ccccc1)C(=O)O)C(=O)N1CCC[C@H]1C(=O)O ?
**Result** 7.13

**Query** Quick one: pKa for Cc1ncc(C[n+]2csc(CCO)c2C)c(N)n1 ?
**Result** 4.88

**Query** Quick one: pKa for N[C@@H](Cc1cc(I)c(Oc2cc(I)c(O)c(I)c2)c(I)c1)C(=O)O [Levothyroxine sodium] ?
**Result** 8.73

**Query** Quick one: pKa for C[C@@H](NCCCc1cccc(C(F)(F)F)c1)c1cccc2ccccc12 [Cinacalcet HCl] ?
**Result** 8.85

**Query** Quick one: pKa for CC1(C)S[C@@H]2[C@H](NC(=O)[C@H](N)c3ccc(O)cc3)C(=O)N2[C@H]1C(=O)O ?
**Result** 7.35

**Query** Quick one: pKa for COC(=O)[C@H](c1ccccc1Cl)N1CCc2sccc2C1 [Clopidogrel bisulfate] ?
**Result** 4.66

----------
- EXPERIMENT: In vitro binding assay: free test drug recovered after 3 h incubation with and without patiromer in SGF, acetate buffer or SIF
- DETAILS: QSPR input data; test matrix SGF
Where a name gives a salt, the structure may show the parent alone.
ASSAY_METRIC: SGF
// no unit string in output, number only

**Query** Quick one: SGF for CC(=O)Oc1ccccc1C(=O)O ?
**Result** 100.7

**Query** Quick one: SGF for NCCCC[C@H](N[C@@H](CCc1ccccc1)C(=O)O)C(=O)N1CCC[C@H]1C(=O)O ?
**Result** 77.9

**Query** Quick one: SGF for C=C[C@H]1C[N@@]2CC[C@H]1C[C@@H]2[C@@H](O)c1ccnc2ccc(OC)cc12 ?
**Result** 12.6

**Query** Quick one: SGF for Cc1cnc(C(=O)NCCc2ccc(S(=O)(=O)NC(=O)NC3CCCCC3)cc2)cn1 [Glipizide] ?
**Result** 72.9

**Query** Quick one: SGF for CC(=O)S[C@@H]1CC2=CC(=O)CC[C@]2(C)[C@H]2CC[C@@]3(C)[C@@H](CC[C@@]34CCC(=O)O4)[C@H]12 ?
**Result** 78.7

**Query** Quick one: SGF for Oc1ncnc2[nH]ncc12 ?
**Result** 85.7

**Query** Quick one: SGF for COc1ccc(-n2nc(C(N)=O)c3c2C(=O)N(c2ccc(N4CCCCC4=O)cc2)CC3)cc1 ?
**Result** 75.6

**Query** Quick one: SGF for COC(=O)[C@H](c1ccccc1Cl)N1CCc2sccc2C1 [Clopidogrel bisulfate] ?
**Result** 66

**Query** Quick one: SGF for C[C@@H](NCCCc1cccc(C(F)(F)F)c1)c1cccc2ccccc12 [Cinacalcet HCl] ?
**Result** 13.4

**Query** Quick one: SGF for O=C1NC(=O)C(c2ccccc2)(c2ccccc2)N1 [Phenytoin sodium] ?
**Result** 83.4

**Query** Quick one: SGF for CC1=C(C(=O)O)N2C(=O)[C@@H](NC(=O)[C@H](N)c3ccccc3)[C@H]2SC1 ?
**Result** 88.7

**Query** Quick one: SGF for NS(=O)(=O)c1cc(C(=O)O)c(NCc2ccco2)cc1Cl [Furosemide] ?
**Result** 67.3

**Query** Quick one: SGF for O=C(NC[C@H]1CN(c2ccc(N3CCOCC3=O)cc2)C(=O)O1)c1ccc(Cl)s1 ?
**Result** 71.9

**Query** Quick one: SGF for COc1cc(Cc2cnc(N)nc2N)cc(OC)c1OC ?
**Result** 36.3

**Query** Quick one: SGF for CN(C)C(=N)N=C(N)N [Metformin HCl] ?
**Result** 48.9

**Query** Quick one: SGF for CC(C)c1c(C(=O)Nc2ccccc2)c(-c2ccccc2)c(-c2ccc(F)cc2)n1CC[C@@H](O)C[C@@H](O)CC(=O)O ?
**Result** 91.2

**Query** Quick one: SGF for CCCCC(=O)N(Cc1ccc(-c2ccccc2-c2nnn[nH]2)cc1)[C@H](C(=O)O)C(C)C ?
**Result** 86.4

----------
- EXPERIMENT: In vitro binding assay: free test drug recovered after 3 h incubation with and without patiromer in SGF, acetate buffer or SIF
- DETAILS: simulated gastric fluid, final pH 3.0; patiromer 25.2 g/L, 3 h, 37°C; geometric mean of 12 replicates
Counter-ions that a name gives are not always drawn.
Rule: In Vitro Binding (% Drug Recovered) SGF (pH 3) below 70% gives yes, anything at or above gives no.

**Query** # strict comparison: is reported In Vitro Binding (% Drug Recovered) SGF (pH 3) < 70%? input = CC(=O)S[C@@H]1CC2=CC(=O)CC[C@]2(C)[C@H]2CC[C@@]3(C)[C@@H](CC[C@@]34CCC(=O)O4)[C@H]12
**Result** no

**Query** # strict comparison: is reported In Vitro Binding (% Drug Recovered) SGF (pH 3) < 70%? input = C=C[C@H]1C[N@@]2CC[C@H]1C[C@@H]2[C@@H](O)c1ccnc2ccc(OC)cc12
**Result** yes

**Query** # strict comparison: is reported In Vitro Binding (% Drug Recovered) SGF (pH 3) < 70%? input = Oc1ncnc2[nH]ncc12
**Result** no

**Query** # strict comparison: is reported In Vitro Binding (% Drug Recovered) SGF (pH 3) < 70%? input = O=C([O-])[O-].[Li+].[Li+] [Lithium carbonate]
**Result** no

**Query** # strict comparison: is reported In Vitro Binding (% Drug Recovered) SGF (pH 3) < 70%? input = Cc1cnc(C(=O)NCCc2ccc(S(=O)(=O)NC(=O)NC3CCCCC3)cc2)cn1 [Glipizide]
**Result** no

**Query** # strict comparison: is reported In Vitro Binding (% Drug Recovered) SGF (pH 3) < 70%? input = Cc1ncc(C[n+]2csc(CCO)c2C)c(N)n1
**Result** yes

**Query** # strict comparison: is reported In Vitro Binding (% Drug Recovered) SGF (pH 3) < 70%? input = COc1ccc(-n2nc(C(N)=O)c3c2C(=O)N(c2ccc(N4CCCCC4=O)cc2)CC3)cc1
**Result** no

**Query** # strict comparison: is reported In Vitro Binding (% Drug Recovered) SGF (pH 3) < 70%? input = CC(=O)Oc1ccccc1C(=O)O
**Result** no

**Query** # strict comparison: is reported In Vitro Binding (% Drug Recovered) SGF (pH 3) < 70%? input = NCCCC[C@H](N[C@@H](CCc1ccccc1)C(=O)O)C(=O)N1CCC[C@H]1C(=O)O
**Result** no

**Query** # strict comparison: is reported In Vitro Binding (% Drug Recovered) SGF (pH 3) < 70%? input = CN(C)C(=N)N=C(N)N [Metformin HCl]
**Result** yes

**Query** # strict comparison: is reported In Vitro Binding (% Drug Recovered) SGF (pH 3) < 70%? input = C[C@@H](NCCCc1cccc(C(F)(F)F)c1)c1cccc2ccccc12 [Cinacalcet HCl]
**Result** yes

**Query** # strict comparison: is reported In Vitro Binding (% Drug Recovered) SGF (pH 3) < 70%? input = CC(C)c1c(C(=O)Nc2ccccc2)c(-c2ccccc2)c(-c2ccc(F)cc2)n1CC[C@@H](O)C[C@@H](O)CC(=O)O
**Result** no

**Query** # strict comparison: is reported In Vitro Binding (% Drug Recovered) SGF (pH 3) < 70%? input = CCCCC(=O)N(Cc1ccc(-c2ccccc2-c2nnn[nH]2)cc1)[C@H](C(=O)O)C(C)C
**Result** no

**Query** # strict comparison: is reported In Vitro Binding (% Drug Recovered) SGF (pH 3) < 70%? input = COc1cc(Cc2cnc(N)nc2N)cc(OC)c1OC
**Result** yes

**Query** # strict comparison: is reported In Vitro Binding (% Drug Recovered) SGF (pH 3) < 70%? input = NS(=O)(=O)c1cc(C(=O)O)c(NCc2ccco2)cc1Cl [Furosemide]
**Result** yes

**Query** # strict comparison: is reported In Vitro Binding (% Drug Recovered) SGF (pH 3) < 70%? input = O=C1NC(=O)C(c2ccccc2)(c2ccccc2)N1 [Phenytoin sodium]
**Result** no

**Query** # strict comparison: is reported In Vitro Binding (% Drug Recovered) SGF (pH 3) < 70%? input = CC1=C(C(=O)O)N2C(=O)[C@@H](NC(=O)[C@H](N)c3ccccc3)[C@H]2SC1
**Result** no

**Query** # strict comparison: is reported In Vitro Binding (% Drug Recovered) SGF (pH 3) < 70%? input = COC(=O)[C@H](c1ccccc1Cl)N1CCc2sccc2C1 [Clopidogrel bisulfate]
**Result** yes
